Test system: NCI-H460 lung
Assay: NCI-60 one-dose screen, 48 h
Settings: 10 µM unless noted
This is part of a sample that, as a whole, favours compounds with a hit. Of some 83,000 tested, about 20% had one in any assay. Calls of active or inactive are those of the source. How the source made its calls: active means growth percent below 10; inactive means the rest.
Choose the fitting class; nothing outside active, inactive is accepted.

Some solved cases for reference:
[[record]]
molecule = "COC(=O)/C=C1\\SC(=Nc2cccc(Cl)c2)N(CCc2c[nH]c3ccccc23)C1=O"
class = "inactive"

[[record]]
molecule = "C=C1C(=O)O[C@H]2[C@H]1CC/C(C=Nc1c(N)cc(C(F)(F)F)cc1Br)=C\\CC[C@@]1(C)O[C@@H]21"
class = "inactive"


Problem: Recorded test call requested for COc1cc(C2=NN(C=O)C(c3cccc(Nc4ccnc5cc(C(F)(F)F)ccc45)c3)C2)cc(OC)c1OC (stereo not given)
Solution: inactive

Problem: Item: `C=CCn1c(SCC(=O)Nc2ccc(C(=O)/C=C/c3cc(OC)c(OC)c(OC)c3)cc2)nnc1-c1ccccc1`
Solution: inactive

Problem: Item: `Clc1ccc2c(NCCCNC3CCCCC3)ccnc2c1`
Solution: inactive

Problem: Item: CN(C)C(CNc1oc(-c2cccc3ccccc23)nc1C#N)c1ccco1 (stereo not given)
Solution: inactive

Problem: Item: COc1ccc(-c2nc(C#N)c(NCC(c3ccc(Cl)cc3)N3CCCCC3)o2)cc1 (stereo not given)
Solution: inactive

Problem: Item: `CCCCn1c(=O)c(/C=C/C(=O)/C=C/c2cc3ccccc3n(CCCC)c2=O)cc2ccccc21`
Solution: active

Problem: Item: COc1ccc2nc(-c3ccc(Cl)cc3)cc(C(=O)N3N=C(c4ccc(N)cc4)CC3c3ccccc3)c2c1 (stereo not given)
Solution: inactive

Problem: Item: `CC(=O)Oc1ccc(O)cc1`
Solution: inactive

Problem: Item: COc1ccc(C2C(c3ccccc3)C(=O)N2c2cc(OC)c(OC)c(OC)c2)cc1I (stereo not given)
Solution: active

Problem: Item: `O=C(Nc1nc(-c2ccccc2Cl)cs1)c1cc(-c2ccc(Br)cc2)nc2ccccc12`
Solution: inactive

Problem: Item: `CSc1cccc(NC(=O)Nc2nc3c(C)cccc3s2)c1`
Solution: inactive

Problem: Item: `CN(C)CSc1nc2ccccc2s1`
Solution: inactive

Problem: Item: `CN(C)c1ccc(-c2ccc3[nH]c(=O)nc(-c4ccc(F)cc4)c3c2)cn1`
Solution: inactive

Problem: Item: `C=C(C)[C@@H]1CC[C@]2(C(=O)OCCOCCOCC[P+](c3ccccc3)(c3ccccc3)c3ccccc3)CC[C@]3(C)[C@H](CC[C@@H]4[C@@]5(C)CC[C@H](C)C(C)(C)[C@@H]5CC[C@]43C)[C@@H]12`
Solution: active

Problem: Item: `Cc1cccc2nc3c(n12)C(=O)C(=O)c1ccccc1-3`
Solution: inactive

Problem: Item: `COc1ccc2oc(=O)cc(-c3c(C#N)c(N)n4nc(N)c(C#N)c4c3C#N)c2c1`
Solution: inactive

Problem: Item: O=C1NN(c2ccccc2)C(c2ccc3c(c2)OCO3)N2CCC[C@@H]12 (stereo not given in full)
Solution: inactive

Problem: Item: `CC(=O)c1c(OCC#N)ccc2c(C)cc(=O)oc12`
Solution: inactive

---

Could you please report measured growth for the items listed next?
Tested on: SK-MEL-28 melanoma
Assay: NCI-60 one-dose screen, 48 h (100 = growth as untreated, 0 = no growth, -100 = all killed)
Details: 10 µM unless noted
Compounds without any hit were thinned out: in the full panel of roughly 83,000, 20% have a hit.
Numbers only, in %.

Below, each entry is followed by its recorded growth result.
[[record]]
compound = "O=C(CCc1nnc2sc(OCc3ccccc3)nn12)c1nc2ccc([N+](=O)[O-])cc2[nH]1"
metricname = "growth"
recordedmeasurement = 115

[[record]]
compound = "O=C1C(=O)c2c(nc3ccc(C(F)(F)F)cn23)-c2ccccc21"
metricname = "growth"
recordedmeasurement = -84.3

[[record]]
compound = "O=c1[nH]nc(-c2ccc(Br)cc2)c2sc(NC(=S)Nc3ccc(Cl)cc3)nc12"
metricname = "growth"
recordedmeasurement = 109


Please report growth for every entry that follows.
1. COc1cc(N=Nc2cc(S(=O)(=O)O)cc3cc(S(=O)(=O)O)cc(O)c23)c(C)cc1N=Nc1c(S(=O)(=O)O)cc2cc(Nc3ccccc3)ccc2c1O
2. Cc1nccc2c3ccc(OCc4cn(-c5ccccc5)nn4)cc3n(CCCc3ccccc3)c12
3. COc1ccccc1C(=O)/C=C/c1cc2cccc(OC)c2[nH]c1=O
4. COc1ccc(/C=C/C(=O)C(CC2CCC2)C(=O)/C=C/c2ccc(OC)c(OC)c2)cc1OC
5. COc1cc(/C=C/C(=O)/C=C/c2cc3ccc(Cl)cc3[nH]c2=O)ccc1O

Solution:
1: 109; 2: 99; 3: 2.94; 4: -4.06; 5: 98.8

Please report growth for every entry that follows.
1. COc1cccc(NC(=O)Nc2ccc(Oc3ncnc4[nH]c(C)c(C)c34)cc2)c1
2. O=C1CC23OC(C(O)c4ccccc4N12)C1C(c2ccccc2)=NOC13 (configuration not stated)

Solution:
[103, 64.1]

Please report growth for every entry that follows.
1. COCCOCCOCc1n(Cc2ccc3ccccc3n2)c2ccccc2[n+]1Cc1ccc2ccccc2n1
2. COc1ccc2c(c1)C1(C(=O)N2)C(C#N)=C(c2ccccc2)Nc2c1c(-c1ccccc1)nn2-c1ccccc1 (configuration not stated)
3. COC(=O)/C=C1\SC(=Nc2cccc(OC)c2)N(CCc2c[nH]c3ccccc23)C1=O
4. N#Cc1c(NC(=O)c2cccs2)[n+]([O-])c2cc(C(F)(F)F)ccc2[n+]1[O-]

Solution:
41.8
42.9
89.6
120

Please report growth for every entry that follows.
1. C=C1C(=O)O[C@H]2[C@H]1CCC(/C=N/c1ncc(Br)cc1N)=C\CC[C@@]1(C)O[C@@H]21
2. N#Cc1c(-c2ccc(F)cc2)c(C#N)c2c(C#N)c(N)nn2c1N
3. COCCOC(=O)COc1ccc(OC)cc1
4. CN1CCN(C(=O)[C@@]2(C)CC[C@]3(C)CC[C@]4(C)C(=CC[C@@H]5[C@@]6(C)CC[C@H](OC(=O)c7cccnc7)C(C)(C)[C@@H]6CC[C@]54C)[C@@H]3C2)CC1
5. O=C(O)c1ccc(-n2cc(/C=N/Nc3ccc(Cl)cc3Cl)c(-c3ccccc3)n2)cc1
6. C#CCN1C(=O)c2ccccc2N(CC#C)C12CCN(Cc1cn(CC(=O)Nc3ccccc3C(N)=O)nn1)CC2
7. Nn1c(SCC(=O)Nc2ccc(Cl)cc2)nnc1-c1cc(F)c(Cl)cc1Cl

Solution:
-25.8
111
109
76.7
103
93.4
98.1
